Assay Info: acute toxicity (mortality after seven days)
Test Context: mouse, in vivo, po, 4000 mg/kg p.o., male ddY mice
Measured Property: mortality at 168 h

1. COc1ccc(C2SC(=S)N(C)C(c3ccc(OC)cc3)N2C)cc1 (stereo not drawn) [Compound No. 1]    0%
2. COc1ccccc1C1SC(=S)N(C)C(c2ccccc2OC)N1C (stereo not drawn) [Compound No. 3]    0%
3. COc1ccc(C2SC(=S)N(C)C(c3ccc(OC)cc3OC)N2C)c(OC)c1 (stereo not drawn) [compound 12]    0%
4. Cc1ccc(C2SC(=S)N(C)C(c3ccc(C)cc3)N2C)cc1 (stereo not drawn) [Compound No. 4]    0%
5. CN1C(=S)SC(c2ccc3c(c2)OCO3)N(C)C1c1ccc2c(c1)OCO2 (stereo not drawn) [compound 13]    0%
6. COc1cccc(C2SC(=S)N(C)C(c3cccc(OC)c3)N2C)c1 (stereo not drawn) [Compound No. 2]    0%
7. CN1C(=S)SC(c2ccc(Oc3ccccc3)cc2)N(C)C1c1ccc(Oc2ccccc2)cc1 (stereo not drawn) [compound 10]    0%
8. CCOc1ccccc1C1SC(=S)N(C)C(c2ccccc2OCC)N1C (stereo not drawn) [compound 7]    0%
9. Cc1ccccc1C1SC(=S)N(C)C(c2ccccc2C)N1C (stereo not drawn) [compound 6]    0%

---

Each entry below lists one item and its recorded change in vivo at 300 mg/kg value.
Test system: emulsion-induced hyperlipidemic rats
Assay Info: antihyperlipidemic activity in emulsion-induced hyperlipidemic rats
Type: in vivo
Test Context: Rattus norvegicus, po, 72 h; 300 mg/kg daily via stomach tube, 3 days, male S.D. rats, lipids emulsion; versus control group; "-" = reduction rate; read-out: Increase rate of serum HDL-Chol.
Measured Property: change in vivo at 300 mg/kg (%)

1. CN1C(=S)SC(c2ccc(Oc3ccccc3)cc2)N(C)C1c1ccc(Oc2ccccc2)cc1 (centres unmarked)    -23
2. CCOc1ccccc1C1SC(=S)N(C)C(c2ccccc2OCC)N1C (centres unmarked)    14
3. Cc1ccccc1C1SC(=S)N(C)C(c2ccccc2C)N1C (centres unmarked)    61
4. Cc1ccc(C2SC(=S)N(C)C(c3ccc(C)cc3)N2C)cc1 (centres unmarked)    99
5. CC(C)c1ccc(C2SC(=S)N(C)C(c3ccc(C(C)C)cc3)N2C)cc1 (centres unmarked)    56
6. CN1C(=S)SC(c2ccc3c(c2)OCO3)N(C)C1c1ccc2c(c1)OCO2 (centres unmarked)    54
7. CN1C(=S)SC(c2ccc(F)cc2)N(C)C1c1ccc(F)cc1 (centres unmarked)    37
8. COc1ccc(C2SC(=S)N(C)C(c3ccc(OC)cc3)N2C)cc1 (centres unmarked)    53
9. COc1cccc(C2SC(=S)N(C)C(c3cccc(OC)c3)N2C)c1 (centres unmarked)    25
10. Cc1cccc(C2SC(=S)N(C)C(c3cccc(C)c3)N2C)c1 (centres unmarked)    52
11. COc1ccc(C2SC(=S)N(C)C(c3ccc(OC)cc3OC)N2C)c(OC)c1 (centres unmarked)    46
12. COc1ccccc1C1SC(=S)N(C)C(c2ccccc2OC)N1C (centres unmarked)    33
13. CCN1C(=S)SC(c2ccccc2)N(CC)C1c1ccccc1 (centres unmarked)    31
14. COc1cc(C2SC(=S)N(C)C(c3cc(OC)c(OC)c(OC)c3)N2C)cc(OC)c1OC (centres unmarked)    6
15. CCOC(=O)C(C)(C)Oc1ccc(Cl)cc1 [Clofibrate, reference compound]    -8
16. COc1cccc(C2SC(=S)N(C)C(c3cccc(OC)c3OC)N2C)c1OC (centres unmarked)    44
17. CSc1ccc(C2SC(=S)N(C)C(c3ccc(SC)cc3)N2C)cc1 (centres unmarked)    53

Each recorded value in this set is attributed to patent US4639444A.
